Test system: PC-3
test.summary: Cytotoxicity against human PC3 cells after 72 hrs by sulforhodamine B assay
Type: functional, cell-based
test.context: PC-3, 72 h
Kindly state IC50 for each of the entries shown.
Answers are plain numbers, in µM.

CC.CO[C@H]1/C=C/C=C/C=C/C[C@H](O)[C@H](C)[C@@H](OC(=O)[C@@H](C)NC(=O)CC(C)C)/C(C)=C\CCc2cc(O)cc(c2)NC(=O)C1; 11.9

Below is a list of compounds. For each, state its recorded IC50.
1. CO[C@H]1/C=C/C=C/C=C/C[C@H](OC(=O)[C@@H](C)NC(=O)CCC(C)C)[C@H](C)[C@@H](O)/C(C)=C\CCc2cc(O)cc(c2)NC(=O)C1
2. CO[C@H]1/C=C/C=C/C=C/C[C@H](OC(=O)[C@@H](C)NC(=O)C(C)C)[C@H](C)[C@@H](O)/C(C)=C\CCc2cc(O)cc(c2)NC(=O)C1

1: 4.2; 2: 4.4

Below is a list of compounds. For each, state its recorded IC50.
1. CO[C@H]1/C=C/C=C/C=C/C[C@H](OC(=O)[C@@H](C)NC(=O)CCCC(C)C)[C@H](C)[C@@H](O)/C(C)=C\CCc2cc(O)cc(c2)NC(=O)C1
2. CO[C@H]1/C=C/C=C/C=C/C[C@H](OC(=O)[C@@H](C)NC(=O)C2=CCCCC2)[C@H](C)[C@@H](O)/C(C)=C\CCc2cc(O)cc(c2)NC(=O)C1
3. COc1cccc2c1C(=O)c1c(O)c3c(c(O)c1C2=O)C[C@@](O)(C(=O)CO)C[C@@H]3O[C@H]1C[C@H](N)[C@H](O)[C@H](C)O1
4. CCCC(=O)N[C@H](C)C(=O)O[C@H]1C/C=C/C=C/C=C/[C@H](OC)CC(=O)Nc2cc(O)cc(c2)CC/C=C(/C)[C@H](O)[C@H]1C
5. CCC(C)C(=O)N[C@H](C)C(=O)O[C@H]1C/C=C/C=C/C=C/[C@H](OC)CC(=O)Nc2cc(O)cc(c2)CC/C=C(/C)[C@H](O)[C@H]1C (stereo partly specified)

2.7
0.7
0.8
4.5
2.6

Below is a list of compounds. For each, state its recorded IC50.
1. CO[C@H]1/C=C/C=C/C=C/C[C@H](OC(=O)[C@@H](C)NC(=O)CC(C)C)[C@H](C)[C@@H](O)/C(C)=C\CCc2cc(O)cc(c2)NC(=O)C1
2. CO[C@H]1/C=C/C=C/C=C/C[C@H](O)[C@H](C)[C@@H](OC(=O)[C@@H](C)NC(=O)C2CCCCC2)/C(C)=C\CCc2cc(O)cc(c2)NC(=O)C1
3. CO[C@H]1/C=C/C=C/C=C/C[C@H](OC(=O)[C@@H](C)NC(=O)C2CCCCC2)[C@H](C)[C@@H](O)/C(C)=C\CCc2cc(O)cc(c2)NC(=O)C1

1. 4.5
2. 10.2
3. 0.4
